test system: MDA-MB-231 breast; test: NCI-60 one-dose screen, 48 h; conditions: 10 µM unless noted
About 83,000 compounds went through this panel and 20% of them were active in at least one assay; those are over-represented in the sample as a whole. Active and inactive are the calls of the source. Rule for the calls: active = growth percent below 10; inactive = the rest.
// allowed return values: active, inactive

Cc1cc(O)c(C2=NN(c3ccc(S(N)(=O)=O)cc3)C(/C=C/c3ccccc3)C2)cc1Cl (stereo not given)    inactive
CC(=O)OC[C@H]1OC(Sc2sc(C(=O)c3ccc(Br)cc3)c(N)c2-c2nc3ccccc3s2)[C@H](OC(C)=O)[C@@H](OC(C)=O)[C@H]1OC(C)=O (stereo not given in full)    inactive
CCOC(=O)NCCc1ccccc1    inactive
COc1ccc2c(c1)/C(=C/c1sc(=S)n(Cc3ccco3)c1O)C=N2    inactive
Brc1c[n+](Cc2ccc3ccccc3c2)cn1Cc1ccc2ccccc2c1    active

// query Per the assay record, what outcome was assigned to Cc1nc2ccccc2c(/C=C/c2ccc(Cl)cc2)c1C(=O)/C=C/c1cccs1 ?
// result inactive

// query Short answer needed: outcome of this test for C[N+]1=C(/C=C/c2ccc(O)c3ncccc23)C(C)(C)c2ccccc21 ?
// result inactive
